// provenance: PubChem BioAssay

systemTested: Calmodulin-1 (Homo sapiens)
protocol: calcium-bound CALM1 binders on microarrays, profiling panel, artefact control for SMM control-protein annotation, biochemical, small-molecule microarray, Cy5-labelled CALM1, plus calcium (AID 1112);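 further: score merges spot fluorescence with signal to noise from triplicate slides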
experimentalSetup: Cy5-CALM1 binding fluorescence, higher = more signal
Listed here are compounds together with their documented composite z-score.
measurementType: composite z-score

In [3]: df
Out[3]:
                            smilesstructure                 systemtested  observedresult
0       COC(=O)[C@@H]1CCCN1C(=O)[C@@H](C)CO  Calmodulin-1 (Homo sapiens)          0.0051
1  O=C1C[C@@H](O)[C@@H](O)[C@@H]2[C@@H]3C(=O)N(c4ccc(F)cc4F)C(=O)[C@@H]3CC[C@@H]12  Calmodulin-1 (Homo sapiens)          -0.389
2  CC(CCN1CCc2nc(-c3ccccc3)c(-c3ccccc3)cc2C1)=NO[C@H](C)c1cn([C@@H]2COC[C@H]2O)nn1  Calmodulin-1 (Homo sapiens)           -0.46
3  CO[C@H]1O[C@H](CO)[C@@H](OC(=O)Nc2ccc3c(c2)OCO3)[C@H](OC(=O)Nc2ccccc2-c2ccccc2)[C@@H]1OC(=O)Nc1ccccc1-c1ccccc1  Calmodulin-1 (Homo sapiens)           0.116
